Here, each record is paired with measured EC50 data.
TEST_TARGET: Arabidopsis thaliana SHMT
PROTOCOL_TEXT: SHMT activity assay (ED50 SHMT), coupled with N5,N10-CH2-THF dehydrogenase, NADH at 340 nm
Assay type: biochemical
TEST_CONTEXT: inhibition of initial velocity of Arabidopsis thaliana SHMT

CCC1(c2ccc3c(c2)C(C)(C)C(C)C3(C)C)C(C#N)=C(N)Oc2[nH]nc(C)c21 (centres unmarked) [Compound 4.71] ... < 1000 nM
Cc1n[nH]c2c1C(c1cc3ccccc3o1)(C1CCC1)C(C#N)=C(N)O2 (centres unmarked) [Compound 4.52] ... < 100 nM
Cc1n[nH]c2c1C(c1cc3ccccc3s1)(C1CCC1)C(C#N)=C(N)O2 (centres unmarked) [Compound 4.28] ... < 10 nM
Cc1n[nH]c2c1C(c1cc(-c3ccccc3)cs1)(C1CCC1)C(C#N)=C(N)O2 (centres unmarked) [Compound 4.24] ... < 10 nM
CCC1(c2cc(-c3cccs3)cs2)C(C#N)=C(N)Oc2[nH]nc(C)c21 (centres unmarked) [Compound 4.61] ... < 100 nM
CC1(C)C=Cc2cc(C3(C4CCC4)C(C#N)=C(N)Oc4[nH]ncc43)cc(F)c2O1 (centres unmarked) [Compound 4.31] ... < 10 nM
Cc1cccc(-c2ccc(C3(C4CCC4)C(C#N)=C(N)Oc4[nH]nc(C)c43)s2)c1 (centres unmarked) [Compound 4.29] ... < 10 nM

Now examine the next entry.
Lookup: Request body: readout EC50, system Arabidopsis thaliana SHMT, query Cc1n[nH]c2c1C(c1cc3cc(C(F)(F)F)ccc3s1)(C1CCC1)C(C#N)=C(N)O2 (centres unmarked) [Compound 4.22] . Return the value.
Found: < 10 nM
